target: DNA dC->dU-editing enzyme APOBEC-3A (Homo sapiens, UniProt P31941); experiment: APOBEC3A DNA deaminase inhibitors, dose response, biochemical (AID 504722); format: functional
Sequence (P31941 whole entry): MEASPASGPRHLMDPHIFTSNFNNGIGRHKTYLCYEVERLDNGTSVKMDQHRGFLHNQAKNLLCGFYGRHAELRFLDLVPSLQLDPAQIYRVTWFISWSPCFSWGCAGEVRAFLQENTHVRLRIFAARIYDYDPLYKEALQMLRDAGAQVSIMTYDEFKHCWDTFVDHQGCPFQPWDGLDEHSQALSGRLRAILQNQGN
Active and inactive are the calls of the source. Cut-off read from the data, not from the text of the source: actives have a measured IC50 and inactives only a lower limit.
# IC50 per entry

Examples with their reported IC50 follow.
S=c1[nH]nc(Cc2cccs2)n1-c1ccccc1    > 100 µM (inactive)
C=C(C)C(=O)Nc1cccc(C2=NOC3(C2)C[C@@H](C(N)=O)N(C(=O)CC(c2ccccc2)c2ccccc2)C3)c1 (some centres undefined)    > 100 µM (inactive)
CCOC(=O)c1ccc(/N=c2\ssnc2Cl)cc1    > 100 µM (inactive)

Now consider the entry below.
Fill in: IC50 of `Cc1cc(Cl)ccc1/N=c1\ssnc1Cl` is ___ > 100 µM (inactive)

Reference for the values: ChEMBL document CHEMBL1201862
